- ASSAY TEXT: protein stability index of a GFP-peptide fusion (yeast GPS) (PSI 1-4); higher = more stable; sorted into four equal gates, so the index is relative within each strain
- CONDITION DESCRIPTION: doa10∆
I would appreciate it if you labelled entries 1 (yes) when protein stability index is 3 or higher, otherwise 0 (no).

Exercise: Entry YLDQHKRTRLESLKNLN [SMC3] : is its protein stability index no less than 3?
Solution: 0 (no)

Exercise: Entry LKNPEIFQRVGIKPPKG [RPT4] : is its protein stability index no less than 3?
Solution: 0 (no)

Exercise: Entry SYRGVDLEKLLEMSTED [RPS15] : is its protein stability index no less than 3?
Solution: 0 (no)

Exercise: Entry ANSSTIRVTNSFALPFE [RPN8] : is its protein stability index no less than 3?
Solution: 0 (no)

Exercise: Entry ENYEGKQDKTLQKVENQ [YIL149C/MLP2] : is its protein stability index no less than 3?
Solution: 1 (yes)

###

- ASSAY TEXT: protein stability index of a GFP-peptide fusion (yeast GPS) (PSI 1-4); higher = more stable; sorted into four equal gates, so the index is relative within each strain
- CONDITION DESCRIPTION: ubr1∆
I would appreciate it if you labelled entries YES when protein stability index is 3 or higher, otherwise NO.

Some solved entries appear below for comparison.
• RKLGLLGDKEDEKQSAK [MTW1] = YES
• HTGKKLMAQIFFGPTYY [RPB2] = NO
• HYVVLDTNVVLQAIDLL [DIS3] = NO
• KDLQWLEFARITPMNDD [SIN4] = YES
• VRIPPDQFHRDTISAIT [RPC25] = NO

Exercise: Entry VLLHGASLGIGLAAMGS [RPN2] : is its protein stability index no less than 3?
Solution: NO

Exercise: Entry FFGPTYYQRLRHMVDDK [RPB2] : is its protein stability index no less than 3?
Solution: NO

###

- ASSAY TEXT: protein stability index of a GFP-peptide fusion (yeast GPS) (PSI 1-4); higher = more stable; sorted into four equal gates, so the index is relative within each strain
- CONDITION DESCRIPTION: pdr5∆
I would appreciate it if you labelled entries Yes when protein stability index is 3 or higher, otherwise No.

Some solved entries appear below for comparison.
- NKTLTLDLKECYQFAEY [ARP7]: No
- RSLLLSRVRADDLSTRF [RRP43]: Yes
- KGEEAKLDSKKTVPFQV [SSN3]: Yes

Exercise: Entry PTVKYNRKVRAGRGFTL [RPL13A] : is its protein stability index no less than 3?
Solution: No

Exercise: Entry KNEEAEIEVDEMEVDAE [RPN1] : is its protein stability index no less than 3?
Solution: Yes

Exercise: Entry ESPVDVQSQVDSSSVSE [FAS1] : is its protein stability index no less than 3?
Solution: Yes

Exercise: Entry FLQGESPFSITFSVYHE [YMR129W/POM152] : is its protein stability index no less than 3?
Solution: No

Exercise: Entry TDLPIETAAMASLALAH [RPN1] : is its protein stability index no less than 3?
Solution: No

Exercise: Entry ERPAIEFETPTFLVSND [RPN14] : is its protein stability index no less than 3?
Solution: Yes

Exercise: Entry AEDGSRSTKDMIDAVFE [SNF6] : is its protein stability index no less than 3?
Solution: Yes
